Assay: melting temperature; fluorescence melt of hairpins on a sequencing array, two-state fit, raised by 9.35 °C to match UV melts
Settings: sodium 0.088 M
measurement label: Tm
The reply should read as a number followed by its unit.

Fill blank: measured Tm of the sequence GCCACGCGAAAGCGGAGC ((..(((....)))..)) is ____.
54.4 °C

Fill blank: measured Tm of the sequence GATCCGTTCACGGATC ((((((....)))))) is ____.
67.4 °C

Fill blank: measured Tm of the sequence GCGGATCCCCGC ((((....)))) is ____.
56.4 °C

Fill blank: measured Tm of the sequence GTGTACGGAAACACACAC ((((..(....)..)))) is ____.
31.9 °C

Fill blank: measured Tm of the sequence GCTGTAGGAAACCACAGC (((((.(....).))))) is ____.
47.5 °C

Fill blank: measured Tm of the sequence CGCGCGGAAACGCCTGCG ((((((....)))..))) is ____.
46.8 °C

Fill blank: measured Tm of the sequence TGGTTGAAAAACCA (((((....))))) is ____.
47 °C

Fill blank: measured Tm of the sequence GGTGGCGAAAGCCGGACC ((((((....)))..))) is ____.
46.8 °C

Fill blank: measured Tm of the sequence GGCACTGGAAACAGTACC ((.((((....)))).)) is ____.
43 °C

Fill blank: measured Tm of the sequence AGTCTGAAAAGACT (((((....))))) is ____.
47 °C

Fill blank: measured Tm of the sequence GGATGTACGAAAGTATCC (((..(((....)))))) is ____.
37.9 °C

Fill blank: measured Tm of the sequence GACGGGGCGAAAGCCGTC (((..(((....)))))) is ____.
55.2 °C

Fill blank: measured Tm of the sequence GGCGAGACGAAAGTCGCC (((..(((....)))))) is ____.
59.4 °C

Fill blank: measured Tm of the sequence GATCCCTCTTGGGATC ((((((....)))))) is ____.
63.7 °C

Fill blank: measured Tm of the sequence GGAGAGCGAAAGCTTCC (((.(((....)))))) is ____.
44.5 °C

Fill blank: measured Tm of the sequence GAGTGCGAAAGCAAGCTC ((((((....)))..))) is ____.
43.6 °C

Fill blank: measured Tm of the sequence GGAGCCACGAAAGTGTCC (((..(((....)))))) is ____.
28.5 °C

Fill blank: measured Tm of the sequence GTATCCGAAAGGACGTAC ((((((....)))..))) is ____.
25.9 °C

Fill blank: measured Tm of the sequence GTAACACGAAAGTGTAC (((.(((....)))))) is ____.
42.8 °C

Fill blank: measured Tm of the sequence GATCGTCACAACGATC ((((((....)))))) is ____.
56.9 °C

Fill blank: measured Tm of the sequence GTCGGGCGAAAGCCAGAC (((.(((....))).))) is ____.
65.2 °C

Fill blank: measured Tm of the sequence GGGAGCGAAAGCTGACCC ((((((....)))..))) is ____.
45.9 °C

Fill blank: measured Tm of the sequence GACTCCGAAAGGATGTC ((((((....))).))) is ____.
51 °C

Fill blank: measured Tm of the sequence GCACATTCGAAAGAATGC (((..(((....)))))) is ____.
33 °C

Fill blank: measured Tm of the sequence GAAAAGCGAAAGCTCTTC (((.(((....))).))) is ____.
36.5 °C
